# OD450 nm per record follows
Target: HRgpA-6H (Porphyromonas gingivalis) (UniProt P28784)
Assay: ELISA, coated HRgpA-6H
// print number alone

[[record]]
binder = "KB001 mouse Fab VH S61K (Fab, V domains shown) VH: EVQLKQSGPGLVAPSQSLSITCTVSGFSLSIYSVHWVRQPPGKGLEWLGMIWGGGSSDYNKALKSRLSISKDNSKSQVFLKMNSLQTDDTAMYYCARNGNFYAMDYWGQGTSVTVSS VL: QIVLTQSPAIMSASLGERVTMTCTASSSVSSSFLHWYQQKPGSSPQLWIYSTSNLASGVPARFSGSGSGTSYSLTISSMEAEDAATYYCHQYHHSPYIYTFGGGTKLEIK"
measured_attribute = "OD450 nm"
observed_result = 0.49


Any idea what OD450 nm was measured for KB001 mouse Fab VH K64R (Fab, V domains shown) VH: EVQLKQSGPGLVAPSQSLSITCTVSGFSLSIYSVHWVRQPPGKGLEWLGMIWGGGSSDYNSALRSRLSISKDNSKSQVFLKMNSLQTDDTAMYYCARNGNFYAMDYWGQGTSVTVSS VL: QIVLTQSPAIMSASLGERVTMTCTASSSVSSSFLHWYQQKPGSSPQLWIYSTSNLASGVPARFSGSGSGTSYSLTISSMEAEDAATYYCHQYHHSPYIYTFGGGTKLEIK ?
0.87

Numbers sourced from patent US20240400654A1.
